TESTED TARGET: α-FR (Homo sapiens, UniProt P15328)
Construct: expressed in transfected cells; host or cells: A431 (human vulvar carcinoma)
Sequence (P15328 25-234): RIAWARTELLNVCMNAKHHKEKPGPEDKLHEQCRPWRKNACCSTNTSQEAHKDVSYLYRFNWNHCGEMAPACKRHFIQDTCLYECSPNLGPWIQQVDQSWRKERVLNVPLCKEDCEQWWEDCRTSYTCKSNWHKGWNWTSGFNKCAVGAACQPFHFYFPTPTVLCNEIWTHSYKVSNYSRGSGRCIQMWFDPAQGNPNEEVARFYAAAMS
METHOD NOTES: Binding to α-FR relative to folic acid, A431-FBP cells
EXPERIMENTAL CONTEXT: human A431 cells transfected with α-FR; folic acid = 1
OBSERVATION TYPE: Inverse relative affinity for α-FR, A431-FBP
Just the number, please.

Use the examples below as a reference point.
{"COMPOUND": "C#CCN(c1ccc(C(=O)N[C@@H](CCC(=O)N(C)C(CCC(=O)O)C(=O)O)C(=O)O)cc1)C1CCc2cc3nc(C)[nH]c(=O)c3cc21 (mixture of isomers) [CB300899 (R, S)]", "RECORDED VALUE": 0.64}
{"COMPOUND": "C#CCN(c1ccc(C(=O)N[C@@H](CCC(=O)O)C(=O)O)cc1)C1CCc2cc3nc(CO)[nH]c(=O)c3cc21 (stereo partly drawn) [CB300959 (R, S), reference compound]", "RECORDED VALUE": 0.57}
{"COMPOUND": "C#CCN(c1ccc(C(=O)N[C@@H](CCC(=O)N[C@H](CCC(=O)O)C(=O)O)C(=O)O)c(F)c1)C1CCc2cc3nc(C)[nH]c(=O)c3cc21 (mixture of isomers) [CB300947 (R, S)]", "RECORDED VALUE": 0.58}
{"COMPOUND": "C#CCN(c1ccc(C(=O)N[C@@H](CCC(=O)N[C@H](CCC(=O)O)C(=O)O)C(=O)O)cc1)C1CCc2cc3nc(C)[nH]c(=O)c3cc21 (mixture of isomers) [CB300638 (R, S)]", "RECORDED VALUE": 0.59}

Sample C#CCN(c1ccc(C(=O)N[C@@H](CCC(=O)N[C@H](CCC(=O)O)c2nnn[nH]2)C(=O)O)cc1)[C@H]1CCc2cc3nc(C)[nH]c(=O)c3cc21 [CB300907 (S)] ; Inverse relative affinity for α-FR, A431-FBP observed: 0.58

Where these numbers come from: patent US7528141B2
